# studySystem: BRAF V600E (Homo sapiens, UniProt P15056, V600E)
# Construct: expressed in transfected cells
# Sequence (P15056 whole entry V600E): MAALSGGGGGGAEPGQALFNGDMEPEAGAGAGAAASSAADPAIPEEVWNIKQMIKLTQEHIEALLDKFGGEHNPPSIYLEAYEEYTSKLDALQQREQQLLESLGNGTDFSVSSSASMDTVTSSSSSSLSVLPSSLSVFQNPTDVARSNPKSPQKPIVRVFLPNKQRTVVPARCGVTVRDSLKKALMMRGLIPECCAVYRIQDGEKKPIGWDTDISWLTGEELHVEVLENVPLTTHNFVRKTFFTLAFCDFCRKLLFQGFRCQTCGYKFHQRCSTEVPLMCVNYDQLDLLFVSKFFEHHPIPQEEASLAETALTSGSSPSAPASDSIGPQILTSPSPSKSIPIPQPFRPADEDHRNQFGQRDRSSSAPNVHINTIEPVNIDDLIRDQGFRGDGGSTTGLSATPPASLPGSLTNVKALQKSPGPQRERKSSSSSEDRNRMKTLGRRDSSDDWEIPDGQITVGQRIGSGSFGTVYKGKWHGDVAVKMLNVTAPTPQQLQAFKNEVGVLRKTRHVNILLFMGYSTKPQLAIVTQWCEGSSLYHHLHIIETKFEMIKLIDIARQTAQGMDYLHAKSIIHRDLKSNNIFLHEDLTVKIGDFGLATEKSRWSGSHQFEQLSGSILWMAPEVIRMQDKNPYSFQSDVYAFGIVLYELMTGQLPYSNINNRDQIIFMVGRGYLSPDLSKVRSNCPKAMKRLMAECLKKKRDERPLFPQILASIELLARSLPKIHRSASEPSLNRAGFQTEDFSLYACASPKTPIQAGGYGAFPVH
# assayText: Cellular assay of target protein degradation, T-Rex 293 cells stably transfected with HA-BRAF_V600E (HA immunofluorescence, high content imaging)
# Type: cell-based
# conditionDetails: half maximal degradation, T-Rex 293 HA-BRAF V600E; read-out: BRaf V600E DC50
DC50 reference

Before answering, review these 2 worked examples.
C[C@H]1C[C@@H](CN2CCC(c3ccc4c(c3)CN([C@H]3CCC(=O)NC3=O)C4=O)CC2)CCN1c1ccc(-c2cnc3[nH]cc(C(=O)c4c(F)ccc(NS(=O)(=O)N5CC[C@@H](F)C5)c4F)c3c2)cc1 [Compound 239] :: 5 to 50 nM
C[C@H](c1ncc(-c2cnc3[nH]cc(C(=O)c4c(F)ccc(NS(=O)(=O)N5CC[C@@H](F)C5)c4F)c3c2)cn1)N1CCN(CC2CCN(c3ccc4c(c3)CN([C@H]3CCC(=O)NC3=O)C4=O)CC2)CC1 [Compound 290] :: 50 to 500 nM

query: Look at this molecule and give its reported DC50. O=C1CCC(N2Cc3cc(N4CCN(CC5CN(c6ccc(-c7cnc8[nH]cc(C(=O)c9c(F)ccc(NS(=O)(=O)N%10CC[C@@H](F)C%10)c9F)c8c7)cc6F)C5)CC4)ccc3C2=O)C(=O)N1 (stereo partly drawn) [Compound 131]
result: 5 to 50 nM

query: Give its DC50 value. Item: CCCS(=O)(=O)Nc1ccc(F)c(C(=O)c2c[nH]c3ncc(-c4ccc(N5CC6(CN(CC7CCN(c8cc9c(c(OC)c8)C(=O)N([C@H]8CCC(=O)NC8=O)C9)CC7)C6)C5)cc4)cc23)c1F [Compound 237]
result: 5 to 50 nM

query: Quick check: DC50 of CNc1cc(-c2cnc3[nH]cc(C(=O)c4c(F)ccc(NS(=O)(=O)N5CC[C@@H](F)C5)c4F)c3c2)ccc1N1CCC(CN2CCC(c3ccc4c(c3)CN([C@H]3CCC(=O)NC3=O)C4=O)CC2)CC1 [Compound 210] ?
result: 5 to 50 nM

query: # input molecule: O=C1CCC(N2Cc3cc(N4CC5(CC(CN6CCc7cc(-c8cnc9[nH]cc(C(=O)c%10c(F)ccc(NS(=O)(=O)N%11CC[C@@H](F)C%11)c%10F)c9c8)ccc7C6)C5)C4)ccc3C2=O)C(=O)N1 (stereo partly drawn) [Compound 8] ; wanted: its DC50
result: 5 to 50 nM

query: # DC50 lookup, item O=C1CCC(N2Cc3cc(N4CCC(C5CN(c6ccc(-c7cnc8[nH]cc(C(=O)c9c(F)ccc(NS(=O)(=O)N%10CC[C@@H](F)C%10)c9F)c8c7)cc6)C5)CC4)ccc3C2=O)C(=O)N1 (stereo partly drawn) [Compound 293]
result: 50 to 500 nM

query: Given the molecule O=C1CC[C@@H](NC(=O)c2ccc(C3CCN(CC4CCN(c5ccc(-c6cnc7[nH]cc(C(=O)c8c(F)ccc(NS(=O)(=O)N9CC[C@@H](F)C9)c8F)c7c6)cc5)CC4)CC3)cc2F)C(=O)N1 [Compound 48] , what is its reported DC50?
result: 50 to 500 nM

query: // query DC50 value for entry O=C1CCC(N2Cc3cc(C4CCN(CC5CCN(c6ccc(-c7cnc8[nH]cc(C(=O)c9c(Cl)ccc(NS(=O)(=O)N%10CC[C@@H](F)C%10)c9Cl)c8c7)cc6)CC5)CC4)ccc3C2=O)C(=O)N1 (stereo partly drawn) [Compound 268]
result: 50 to 500 nM
